- Run Description: Isoelectric point by isoelectrofocusing
- Type: physicochemical
Quantity Kind: isoelectric point (pI)

{"columns": ["Sequence Record", "Endpoint Result"],
 "data": [
  ["TTKNYGNGVCNSVNWCQCGNVWASCNLATGCAAWLCKLA (listed as Enterococcus faecium) [bacteriocin 50-52, bacteriocin produced by Enterococcus faecium LWP 50-52]", "about 8.4"],
  ["KTYYGTNGVHCTKNSLWGKVRLKNMKYDQNTTYMGRLQDILLGWATGAFGKTH (listed as Lactobacillus salivarius) [bacteriocin OR-7, bacteriocin produced by Lactobacillus salivarius PVD-32]", "about 8.4"]
]}
